Substrate: C[N+](C)(C)CCOP(=O)(O)OP(=O)([O-])OC[C@H]1O[C@@H](n2ccc(N)nc2=O)[C@H](O)[C@@H]1O
test name: colorimetric Pi assay coupled to alkaline phosphatase, saturation kinetics
Type: biochemical, Homo sapiens
measurement setup: 5 mM MnCl2, pH 7.5, 37°C
assay metric: kcat/Km

Examples with their reported kcat/Km follow.
>  <protein>
human ADPRibase-Mn (Homo sapiens; Q27H) (protein, full length, 342 aa; expressed as GST fusion (pGEX-6P-3), GST cut off with PreScission protease, 11-aa N-terminal extension …) MDDKPNPEALSDSSERLFSFGVIADVHFADLEDGFNFQGTRRRYYRHSLLHLQGAIEDWNNESSMPCCVLQLGDIIDGYNAQYNASKKSLELVMDMFKRLKVPVHHTWGNHEFYNFSREYLTHSKLNTKFLEDQIVHHPETMPSEDYYAYHFVPFPKFRFILLDAYDLSVLGVDQSSPKYEQCMKILREHNPNTELNSPQGLSEPQFVQFNGGFSQEQLNWLNEVLTFSDTNQEKVVIVSHLPIYPDASDNVCLAWNYRDALAVIWSHECVVCFFAGHTHDGGYSEDPFGVYHVNLEGVIETAPDSQAFGTVHVYPDKMMLKGRGRVPDRIMNYKKERAFHC

>  <kcat/Km>
14000 M⁻¹ s⁻¹

$$$$
>  <protein>
human ADPRibase-Mn (Homo sapiens; F210A) (protein, full length, 342 aa; expressed as GST fusion (pGEX-6P-3), GST cut off with PreScission protease, 11-aa N-terminal extension …) MDDKPNPEALSDSSERLFSFGVIADVQFADLEDGFNFQGTRRRYYRHSLLHLQGAIEDWNNESSMPCCVLQLGDIIDGYNAQYNASKKSLELVMDMFKRLKVPVHHTWGNHEFYNFSREYLTHSKLNTKFLEDQIVHHPETMPSEDYYAYHFVPFPKFRFILLDAYDLSVLGVDQSSPKYEQCMKILREHNPNTELNSPQGLSEPQFVQANGGFSQEQLNWLNEVLTFSDTNQEKVVIVSHLPIYPDASDNVCLAWNYRDALAVIWSHECVVCFFAGHTHDGGYSEDPFGVYHVNLEGVIETAPDSQAFGTVHVYPDKMMLKGRGRVPDRIMNYKKERAFHC

>  <kcat/Km>
4000 M⁻¹ s⁻¹

$$$$
>  <protein>
human ADPRibase-Mn (Homo sapiens; H111A) (protein, full length, 342 aa; expressed as GST fusion (pGEX-6P-3), GST cut off with PreScission protease, 11-aa N-terminal extension …) MDDKPNPEALSDSSERLFSFGVIADVQFADLEDGFNFQGTRRRYYRHSLLHLQGAIEDWNNESSMPCCVLQLGDIIDGYNAQYNASKKSLELVMDMFKRLKVPVHHTWGNAEFYNFSREYLTHSKLNTKFLEDQIVHHPETMPSEDYYAYHFVPFPKFRFILLDAYDLSVLGVDQSSPKYEQCMKILREHNPNTELNSPQGLSEPQFVQFNGGFSQEQLNWLNEVLTFSDTNQEKVVIVSHLPIYPDASDNVCLAWNYRDALAVIWSHECVVCFFAGHTHDGGYSEDPFGVYHVNLEGVIETAPDSQAFGTVHVYPDKMMLKGRGRVPDRIMNYKKERAFHC

>  <kcat/Km>
300 M⁻¹ s⁻¹

$$$$

Shifting focus to the protein that follows.
Prompt: Which kcat/Km reading was recorded for the protein human ADPRibase-Mn (Homo sapiens) (protein, full length, 342 aa; expressed as GST fusion (pGEX-6P-3), GST cut off with PreScission protease, 11-aa N-terminal extension …) MDDKPNPEALSDSSERLFSFGVIADVQFADLEDGFNFQGTRRRYYRHSLLHLQGAIEDWNNESSMPCCVLQLGDIIDGYNAQYNASKKSLELVMDMFKRLKVPVHHTWGNHEFYNFSREYLTHSKLNTKFLEDQIVHHPETMPSEDYYAYHFVPFPKFRFILLDAYDLSVLGVDQSSPKYEQCMKILREHNPNTELNSPQGLSEPQFVQFNGGFSQEQLNWLNEVLTFSDTNQEKVVIVSHLPIYPDASDNVCLAWNYRDALAVIWSHECVVCFFAGHTHDGGYSEDPFGVYHVNLEGVIETAPDSQAFGTVHVYPDKMMLKGRGRVPDRIMNYKKERAFHC ?
Completion: 150000 M⁻¹ s⁻¹
